# systemUnderTest: DRB1*1101 (human, UniProt P01903 26-216, limits assumed)
# test: competition vs 125I probe peptide, purified MHC II
readoutKind: IC50 (nM)
State the answer as a number, implicitly in nM.

Value of IC50 reported for the binder "DTFRKNFRVYSNFLR" is 5

Hey, just so you know, these numbers are from patent US20070184519A1.
